Form field: TGI (one value per entry).
test system: HOP-92 NSCLC; assay: NCI tumour cell line growth inhibition, 48 h
Observation type: TGI (µM)

[[record]]
compound = "Oc1ccccc1C=Nc1nc(SCc2ccccc2)nc2[nH]ncc12"
qualifier_operator = "="
reported_result = 71.1

[[record]]
compound = "O=C(NNCc1ccco1)c1cc2ccccc2[nH]1"
qualifier_operator = ">"
reported_result = 96.4

[[record]]
compound = "COc1ccc(NC(=O)COCCOCCNC[C@@H]2C(=O)O[C@H]3[C@H]2CC/C(COC(=O)OC/C2=C/CC[C@@]4(C)O[C@H]4[C@H]4OC(=O)[C@@H](CN(C)C)[C@@H]4CC2)=C\\CC[C@@]2(C)O[C@@H]32)c(O)c1C(N)=O"
qualifier_operator = "="
reported_result = 6.93

[[record]]
compound = "CN(C)CCCNc1c(C#N)[n+]([O-])c2cc(Cl)ccc2[n+]1[O-]"
qualifier_operator = "="
reported_result = 25.5

[[record]]
compound = "O=[N+]([O-])c1cc(C2SCc3nc4ccccc4n32)ccc1Cl (centres undefined)"
qualifier_operator = "="
reported_result = 49.3

[[record]]
compound = "OC1[C@H](O)CN(OCc2ccccc2)C[C@@H]1O (some centres undefined)"
qualifier_operator = ">"
reported_result = 100

[[record]]
compound = "Cc1ccc(N=Nc2ccc(N)cc2C)c(S(N)(=O)=O)c1"
qualifier_operator = "="
reported_result = 99.5

[[record]]
compound = "COc1cc([C@H]2CC(=O)C[C@H](c3cc(OC)c(OC)c(OC)c3)C23C(=O)c2ccccc2C3=O)cc(OC)c1OC"
qualifier_operator = ">"
reported_result = 100

[[record]]
compound = "Clc1ccc2nnnn2n1"
qualifier_operator = "="
reported_result = 27

[[record]]
compound = "COc1c(Br)cc(/C=C(\\C#N)c2cccnc2)cc1Br"
qualifier_operator = "="
reported_result = 75

[[record]]
compound = "O=C1C=CC[C@H](/C=C/c2ccccc2)O1"
qualifier_operator = "="
reported_result = 18.3

[[record]]
compound = "COc1ccc(-n2cc(-c3cc(OC)c(OC)c(OC)c3)nc2SCc2ccccc2)cc1OC"
qualifier_operator = ">"
reported_result = 29.5

[[record]]
compound = "O=P(CCCCP(=O)(c1ccccc1)c1ccccc1)(c1ccccc1)c1ccccc1.[Cl][Sn]([Cl])([c]1ccccc1)[c]1ccccc1"
qualifier_operator = "="
reported_result = 3.18

[[record]]
compound = "Cn1c(Cl)cn2c3nc4ccccc4nc3c(=O)c(C#N)c12"
qualifier_operator = ">"
reported_result = 100

[[record]]
compound = "CC(C)(C)c1ccc(-n2c3nc(=O)n(-c4ccccc4CO)c(=O)c-3cc3ccccc32)cc1"
qualifier_operator = "="
reported_result = 97.7

[[record]]
compound = "Nc1ccc(S(=O)(=O)Nc2ccc(Nc3c4ccccc4nc4ccccc34)cc2)cc1"
qualifier_operator = "="
reported_result = 4.84

[[record]]
compound = "CCN1Cc2c(ccc(F)c2C#N)O[C@@H](C)CNC(=O)c2c(N)nn3ccc1nc23"
qualifier_operator = "="
reported_result = 3.65

[[record]]
compound = "COc1ccc(C2=NN(C(N)=S)C(c3ccccc3)C2)cc1 (centres undefined)"
qualifier_operator = ">"
reported_result = 100

[[record]]
compound = "COC(=O)c1cc2cc3c(c(O)c2c(=O)o1)O[C@@]1(Oc2c(O)c4c(c(O)c2[C@H]1OC1CC(OC)C(O)C(C)O1)C(=O)C=C(OC)C4=O)[C@H](O)C3 (some centres undefined)"
qualifier_operator = ">"
reported_result = 23.6


The reported measurements were obtained from PubChem BioAssay (NCI).
